B1: tRNA (parent)
chain: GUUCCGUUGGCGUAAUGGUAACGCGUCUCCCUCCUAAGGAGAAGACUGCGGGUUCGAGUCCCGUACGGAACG

Variants of: B1
procedure_summary: yeast fitness relative to wild type (ratio to wild type); higher = fitter; tRNA-Arg(CCU), competitive growth, 37 C, YPD
Variants at the floor of the assay were thinned out.
endpoint: yeast fitness
One number for each entry.

Some entries whose results are on file:
U28C A65G | 0.998
C27U U54G | 0.581
A43U G48U | 0.77
A14G C30G | 0.591
C4A U8A | 0.694
C22U A40G G63C | 0.531
A20U C62G | 0.682
A20G G63A A70G | 0.634

Moving on to another variant below.
Prompt line: For the variant G10A A20C C29G , report yeast fitness.
Response line: 0.597
